Tested on: Lewis lung carcinoma cell line
protocol: In vitro inhibitory effect on growth of lewis lung carcinoma cells
Assay type: functional
experimental_context: Mus musculus, read-out: ID50 (the source's name)
result_type: IC50 (nM)
Give bare numbers, in nM.

For orientation, consider the following solved cases.
Form: compound = COP(=O)(OC)OC[C@H]1O[C@@H](C2=NNC(C(N)=O)C2=O)[C@H](O)[C@@H]1O (stereo not given in full) ; IC50 = 10

Form: compound = N#CC1NN=C([C@@H]2O[C@H](CO)[C@@H](O)[C@H]2O)C1=O (stereo not given in full) ; IC50 = 28000

Form: compound = NC(=O)C1NN=C([C@@H]2O[C@H](CO)[C@@H](O)[C@H]2O)C1=O (stereo not given in full) ; IC50 = 1.8

Form: compound = NC(=O)c1[nH]nc(C2OC3COP(=O)(O)O[C@@H]3[C@@H]2O)c1O (stereo not given in full) ; IC50 = 1700

Further cases:
Form: compound = CCOP(=O)(O)OC[C@H]1O[C@@H](C2=NNC(C(N)=O)C2=O)[C@H](O)[C@@H]1O (stereo not given in full) ; IC50 = 0.7
